# Tested on: SNB-19
# experiment.notes: NCI tumour cell line growth inhibition, 48 h
Active and inactive are the calls of the source. No stated cut-off is given here; in the data, active = GI50 up to about 1.1 µM and inactive = higher.
API: response.call in true (1) = active, false (0) = inactive

Examples with answers:
[[record]]
molecule = "O=C(Nc1ccc2[nH]c(C(=O)N3CC(CCl)c4c3cc([N+](=O)[O-])c3ccccc43)cc2c1)c1cc2ccccc2o1 (stereo unspecified)"
label_value = "false (0)"

[[record]]
molecule = "Oc1nc(S)nc(SCc2c(Cl)c(Cl)c(Cl)c(Cl)c2Cl)n1"
label_value = "false (0)"

[[record]]
molecule = "Cc1ccccc1NC(=O)C1C(=O)N(c2ccccc2C)C(=O)/C1=N\\NC(N)=O (stereo unspecified)"
label_value = "false (0)"

[[record]]
molecule = "OC(COC(c1ccccc1)(c1ccccc1)c1ccccc1)C(O)CC1SCCS1 (stereo unspecified)"
label_value = "false (0)"

[[record]]
molecule = "CCOC(=O)c1ccc(/N=C/C=C(\\Nc2ccc(C(=O)OCC)cc2)c2ccc3ccccc3c2)cc1"
label_value = "false (0)"

[[record]]
molecule = "CCC(C(=O)O)c1ccc(OCc2ccccc2)cc1 (stereo unspecified)"
label_value = "false (0)"

[[record]]
molecule = "CN(C)CCC(=O)N1C/C(=C\\c2ccc(Cl)c(Cl)c2)C(=O)/C(=C/c2ccc(Cl)c(Cl)c2)C1"
label_value = "true (1)"

[[record]]
molecule = "O=C1NC(=S)N/C1=C\\c1ccc(Sc2ccccc2C(=O)O)s1"
label_value = "false (0)"


Challenge: What outcome does the record of this test show for CC(=O)OC1c2ccccc2CC2(OC(C)=O)c3ccccc3C12 (stereo unspecified) ?
Response given: false (0)

Challenge: What outcome does the record of this test show for CCCCCCCCC(C)CCCCCCCCC(=O)OCC(COP(=O)([O-])OCC[N+](C)(C)C)OC(=O)CCCCCCCCC(C)CCCCCCCC (stereo unspecified) ?
Response given: false (0)

Challenge: What outcome does the record of this test show for COC(=O)[C@@]12CC(C(C)C)[C@H]3CC(C(=O)C=C1OC)[C@H]32 (stereo partly specified) ?
Response given: false (0)

Challenge: What outcome does the record of this test show for O=C(O)C(=O)/C=C\c1ccc(Cl)cc1 ?
Response given: false (0)

Challenge: What outcome does the record of this test show for COc1cccc(C23CCN(C)C(CC(O)C2)C3)c1OC (stereo unspecified) ?
Response given: false (0)

Challenge: What outcome does the record of this test show for O=c1[nH][nH]c(=O)n1CCCCCCn1c(=O)[nH][nH]c1=O ?
Response given: false (0)

Challenge: What outcome does the record of this test show for Nc1ccc2c(c1)NCCN2 ?
Response given: false (0)

Challenge: What outcome does the record of this test show for O=C(/C=C/c1ccccc1)/C=N/N1C(=S)N(c2ccccc2)C(=N\c2ccccc2)/C1=N/c1ccccc1 ?
Response given: false (0)

Challenge: What outcome does the record of this test show for CCOC(=O)c1cc2c([nH]1)C(=O)CC1=C2CCN1Cc1ccccc1 ?
Response given: false (0)

Challenge: What outcome does the record of this test show for Cc1c(Cl)c(C)c(Cl)c(O)c1Cl ?
Response given: false (0)

Challenge: What outcome does the record of this test show for CC1NC(=O)c2c(-c3ccccc3)nn(-c3ccccc3)c2NC1=O (stereo unspecified) ?
Response given: false (0)

Challenge: What outcome does the record of this test show for Cc1ccc(C(=O)Cc2nc3ncccc3[nH]c2=O)cc1 ?
Response given: false (0)

Challenge: What outcome does the record of this test show for CCOc1ccccc1NC(=O)C1=C(C)NC(C)=C(C(=O)Nc2ccccc2OCC)C1c1ccc([N+](=O)[O-])cc1 ?
Response given: false (0)
